- Test system: DCAMKL2
- Construct: gene DCLK2
- CONDITION SET: Compound Concentration (nM):1000;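 note: KINOMEscan scanMAX binding as percent activity remaining versus control; lower means stronger binding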
MEASURE: Percent Control (%)

INSERT INTO assay_data (compound, measure, numeric_result) VALUES
  ('NS(=O)(=O)c1ccc(N/N=C2\C(=O)Nc3ccc(Cl)cc32)cc1 [GW280670X]', 'Percent Control', 100),
  ('CN(C)c1cc2c(Nc3ccc4c(cnn4Cc4ccccc4)c3)ncnc2cn1 [GW282974X]', 'Percent Control', 100),
  ('Cl.O=C(Nc1ccc(Oc2ccc3[nH]c(NC(=O)c4ccccc4)nc3c2)cc1)Nc1cc(C(F)(F)F)ccc1F [GW709042A]', 'Percent Control', 96),
  ('CN(C)CCNC(=O)Nc1ccc(N(C)c2ccnc(Nc3ccc(CS(C)(=O)=O)cc3)n2)cc1.Cl [GW830900A]', 'Percent Control', 100),
  ('NS(=O)(=O)c1ccc(N/N=C2\C(=O)Nc3ccc(C(=O)NCc4ccncc4)cc32)cc1 [GW300657X]', 'Percent Control', 83),
  ('COc1cc(N2CCN(C(C)C)CC2)ccc1Nc1nc(Nc2ccc(F)cc2C(=O)NC[C@@H](O)CO)c2cc[nH]c2n1 [GSK1392956A]', 'Percent Control', 100),
  ('Cl.O=C(Nc1ccc(Oc2ccc3[nH]c(NC(=O)c4ccco4)nc3c2)cc1)Nc1cc(C(F)(F)F)ccc1F [GW683134A]', 'Percent Control', 100),
  ('COc1ccc(COc2ccc(Cc3cnc(N)nc3N)cc2OC)cc1 [GW632580X]', 'Percent Control', 78);

----------
- System: ALK(C1156Y)
- CONDITION SET: Compound Concentration (nM):1000
MEASURE: Percent Control (%)

INSERT INTO assay_data (compound, measure, result_units, numeric_result) VALUES
  ('CC(C)COC(=O)c1ccc2c(c1)/C(=C/Nc1ccc(S(N)(=O)=O)cc1)C(=O)N2 [GW416981X]', 'Percent Control', '%', 93),
  ('Nc1ncnc2occ(-c3ccc(NC(=O)Nc4cc(C(F)(F)F)ccc4F)cc3)c12 [GW770249X]', 'Percent Control', '%', 41),
  ('COc1ccc(COc2ccc(Cc3cnc(N)nc3N)cc2OC)cc1 [GW632580X]', 'Percent Control', '%', 94),
  ('Cl.c1ccc(Cc2nc3ccc(Nc4ncnc5ccccc45)cc3[nH]2)cc1 [GR269666A]', 'Percent Control', '%', 95),
  ('CCc1ccc(Oc2nccc(-c3c(-c4ccc(F)cc4)ncn3C3CCNCC3)n2)cc1', 'Percent Control', '%', 100),
  ('C/C(Nc1ccc(S(N)(=O)=O)cc1)=C1/C(=O)Nc2ccccc21 [GW335962X]', 'Percent Control', '%', 54),
  ('Cl.O=S1CCN(Cc2ccc(-c3ccc4ncnc(Nc5ccc(OCc6ccccc6)c(F)c5)c4c3)o2)CC1 [GW576924A]', 'Percent Control', '%', 100),
  ('COc1cc(C)c(N(C)C(=O)CN(C)C)cc1Nc1nc(Nc2cccc(F)c2C(N)=O)c2cc[nH]c2n1', 'Percent Control', '%', 4.5);

----------
- System: NEK2
- CONDITION SET: Compound Concentration (nM):1000
MEASURE: Percent Control

INSERT INTO assay_data (molecule, result) VALUES
  ('CC1=C(C(=O)Nc2ccc3[nH]ncc3c2)C(c2ccc(Cl)c(Cl)c2)CC(=O)N1 (stereo not shown) [GSK299115A]', '97%'),
  ('Cl.c1ccc(Cc2nc3ccc(Nc4ncnc5ccccc45)cc3[nH]2)cc1 [GR269666A]', '100%'),
  ('CC(C)COC(=O)c1ccc2c(c1)/C(=C/Nc1ccc(S(N)(=O)=O)cc1)C(=O)N2 [GW416981X]', '100%'),
  ('CN(C)CCNC(=O)Nc1ccc(N(C)c2ccnc(Nc3ccc(CS(C)(=O)=O)cc3)n2)cc1.Cl [GW830900A]', '90%'),
  ('CN1CCN(C(=O)c2ccc(NC(=O)Nc3ccc(N(C)c4ccnc(Nc5ccc(CS(C)(=O)=O)cc5)n4)cc3)cc2)CC1.Cl [GW830263A]', '89%'),
  ('Nc1ncnc2occ(-c3ccc(NC(=O)Nc4cc(C(F)(F)F)ccc4F)cc3)c12 [GW770249X]', '77%'),
  ('Cl.O=C(O[C@H]1CN[C@H](C#Cc2cc3ncnc(Nc4ccc5c(cnn5Cc5ccccc5)c4)c3s2)C1)N1CCOCC1 [GSK200398A]', '72%'),
  ('COc1ccc(COc2ccc(Cc3cnc(N)nc3N)cc2OC)cc1 [GW632580X]', '84%'),
  ('NS(=O)(=O)c1ccc(N/N=C2\C(=O)Nc3ccc(Cl)cc32)cc1 [GW280670X]', '100%'),
  ('Cl.O=C(Nc1ccc(Oc2ccc3[nH]c(NC(=O)c4ccco4)nc3c2)cc1)Nc1cc(C(F)(F)F)ccc1F [GW683134A]', '100%'),
  ('CCS(=O)(=O)c1ccc(OC)c(Nc2ncc(-c3cccc(OC)c3)o2)c1 [GW580509X]', '100%'),
  ('NS(=O)(=O)c1ccc(N/N=C2\C(=O)Nc3ccc(C(=O)NCc4ccncc4)cc32)cc1 [GW300657X]', '79%'),
  ('COc1ccccc1-c1cc(/C=C2\C(=O)Nc3ncc(Br)cc32)cc(Br)c1O [GW442130X]', '100%'),
  ('CC1=C(C(=O)Nc2ccc3[nH]ncc3c2)C(c2ccc3ccccc3c2)CC(=O)N1 (stereo not shown) [GSK270822A]', '85%'),
  ('COc1cc(N2CCN(C(C)C)CC2)ccc1Nc1nc(Nc2ccc(F)cc2C(=O)NC[C@@H](O)CO)c2cc[nH]c2n1 [GSK1392956A]', '99%'),
  ('CCS(=O)(=O)c1ccc(OC)c(Nc2ncc(-c3cccc(F)c3)o2)c1 [GW621970X]', '100%');

----------
- System: IRAK1
- CONDITION SET: Compound Concentration (nM):1000
MEASURE: Percent Control

INSERT INTO results (compound, tgt, result) VALUES
  ('COc1cc(/C=N/Nc2ncnc3[nH]ncc23)ccc1O [GW578748X]', 'IRAK1', '31%'),
  ('CN(C)c1cc2c(Nc3ccc4c(cnn4Cc4ccccc4)c3)ncnc2cn1 [GW282974X]', 'IRAK1', '100%'),
  ('COc1cccc(-c2c[nH]c3c(N/N=C/c4ccncc4)ncnc23)c1 [GW814408X]', 'IRAK1', '23%'),
  ('COc1ccc2[nH]c3c4[nH]c5ccc(OC)cc5c4c4c(c3c2c1)C(=O)NC4=O [GW296115X]', 'IRAK1', '94%'),
  ('COc1ccccc1-c1cc(/C=C2\C(=O)Nc3ncc(Br)cc32)cc(Br)c1O [GW442130X]', 'IRAK1', '74%'),
  ('CC(C)COC(=O)c1ccc2c(c1)/C(=C/Nc1ccc(S(N)(=O)=O)cc1)C(=O)N2 [GW416981X]', 'IRAK1', '50%'),
  ('CCn1c(-c2nonc2N)nc2c(C#CC(C)(C)O)nc(OCCNC)cc21.Cl', 'IRAK1', '92%'),
  ('COc1ccc2c(-c3ccnc(Nc4cccc(OC(F)(F)F)c4)n3)cnn2n1 [GW810372X]', 'IRAK1', '19%'),
  ('NS(=O)(=O)c1ccc(N/N=C2\C(=O)Nc3ccc(-c4cnco4)cc32)cc1', 'IRAK1', '79%');

----------
- Test system: MAP4K5
- CONDITION SET: Compound Concentration (nM):1000
MEASURE: Percent Control (%)

INSERT INTO measurements (compound, measure, result_units, numeric_result) VALUES
  ('NS(=O)(=O)c1ccc(N/N=C2\C(=O)Nc3ccc(C(=O)NCc4ccncc4)cc32)cc1 [GW300657X]', 'Percent Control', '%', 96),
  ('NS(=O)(=O)c1ccc(N/N=C2\C(=O)Nc3ccc(-c4cnco4)cc32)cc1 [GW276655]', 'Percent Control', '%', 84),
  ('CCS(=O)(=O)c1ccc(OC)c(Nc2ncc(-c3cccc(OC)c3)o2)c1 [GW580509X]', 'Percent Control', '%', 100),
  ('COc1cc2ncn(-c3cc(O[C@H](C)c4ccccc4Cl)c(C(N)=O)s3)c2cc1OC [GSK237701A]', 'Percent Control', '%', 7.5),
  ('COc1ccc(COc2ccc(Cc3cnc(N)nc3N)cc2OC)cc1 [GW632580X]', 'Percent Control', '%', 99),
  ('COc1cc(/C=N/Nc2ncnc3[nH]ncc23)ccc1O [GW578748X]', 'Percent Control', '%', 100),
  ('CN(C)CCNC(=O)Nc1ccc(N(C)c2ccnc(Nc3ccc(CS(C)(=O)=O)cc3)n2)cc1.Cl [GW830900A]', 'Percent Control', '%', 77),
  ('CCn1c(-c2nonc2N)nc2c(C#CC(C)(C)O)nc(OCCNC)cc21.Cl [GSK949675]', 'Percent Control', '%', 57),
  ('COc1cccc(-c2c[nH]c3c(N/N=C/c4ccncc4)ncnc23)c1 [GW814408X]', 'Percent Control', '%', 68);
